Taken from patent US10829501B2.

Below, each entry is listed with its recorded IC50.
target: ROCK2 (Homo sapiens, UniProt O75116); test: ROCK2 kinase inhibition assay (LABCHIP 3000 Reader, FITC peptide substrate)
Sequence (O75116 whole entry, species assumed): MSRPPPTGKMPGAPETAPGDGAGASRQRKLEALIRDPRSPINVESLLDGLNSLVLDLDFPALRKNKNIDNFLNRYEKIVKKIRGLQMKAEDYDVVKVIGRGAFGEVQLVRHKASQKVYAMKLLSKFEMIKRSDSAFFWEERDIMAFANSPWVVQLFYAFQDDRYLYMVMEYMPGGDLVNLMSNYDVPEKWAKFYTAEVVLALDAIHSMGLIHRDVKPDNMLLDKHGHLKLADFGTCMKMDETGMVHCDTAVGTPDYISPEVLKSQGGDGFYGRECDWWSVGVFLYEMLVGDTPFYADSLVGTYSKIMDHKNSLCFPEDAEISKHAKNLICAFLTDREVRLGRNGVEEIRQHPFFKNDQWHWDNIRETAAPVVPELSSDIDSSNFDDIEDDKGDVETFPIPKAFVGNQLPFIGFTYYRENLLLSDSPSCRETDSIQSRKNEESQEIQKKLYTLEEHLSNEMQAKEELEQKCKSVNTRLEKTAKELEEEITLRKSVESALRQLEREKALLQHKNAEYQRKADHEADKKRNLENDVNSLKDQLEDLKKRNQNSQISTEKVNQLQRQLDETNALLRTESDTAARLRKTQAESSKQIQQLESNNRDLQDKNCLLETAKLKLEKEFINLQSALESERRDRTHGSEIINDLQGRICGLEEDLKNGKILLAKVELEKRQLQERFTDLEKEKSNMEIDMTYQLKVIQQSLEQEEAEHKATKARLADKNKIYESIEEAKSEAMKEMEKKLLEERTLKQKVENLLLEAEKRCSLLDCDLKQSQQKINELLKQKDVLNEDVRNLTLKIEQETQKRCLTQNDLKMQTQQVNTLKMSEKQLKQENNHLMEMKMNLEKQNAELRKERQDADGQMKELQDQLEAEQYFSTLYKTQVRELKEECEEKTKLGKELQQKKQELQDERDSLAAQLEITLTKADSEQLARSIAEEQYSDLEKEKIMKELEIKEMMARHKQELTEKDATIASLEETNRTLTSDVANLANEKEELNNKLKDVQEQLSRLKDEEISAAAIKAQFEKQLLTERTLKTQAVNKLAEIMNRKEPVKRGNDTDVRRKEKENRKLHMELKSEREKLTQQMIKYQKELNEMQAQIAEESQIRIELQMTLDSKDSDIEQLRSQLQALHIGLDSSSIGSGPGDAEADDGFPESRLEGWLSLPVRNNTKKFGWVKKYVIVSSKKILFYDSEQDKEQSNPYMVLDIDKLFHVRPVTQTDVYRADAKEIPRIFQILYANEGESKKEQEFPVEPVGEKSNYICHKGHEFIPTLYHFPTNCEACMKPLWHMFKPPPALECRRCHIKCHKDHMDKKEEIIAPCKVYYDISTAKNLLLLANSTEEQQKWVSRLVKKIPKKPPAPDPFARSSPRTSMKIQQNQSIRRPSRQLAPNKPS

// lookup IC50 for Cn1c(-c2nc(C(=O)N[C@H]3CC4(C3)C[C@H](Oc3ncccc3C(N)=O)C4)cs2)nc2ccccc21 (stereo partly shown)
50 to 250 nM

// lookup IC50 for [H][C@]1(Oc2ncccc2C(N)=O)C[C@@]2(C[C@H](NC(=O)c3nnn4c(Cl)c(OCc5ccccc5)ccc34)C2)C1 (stereo partly shown)
250 to 2500 nM

// lookup IC50 for N#Cc1cc(C(=O)N[C@H]2CC3(C2)C[C@H](Oc2ncccc2C(N)=O)C3)ccc1F (stereo partly shown)
50 to 250 nM

// lookup IC50 for Cc1cccc(C(N)=O)c1OC1CC2(CC(NC(=O)c3cnn4c(C5CC5)c(OCC(C)(C)O)ccc34)C2)C1 (stereo not shown)
250 to 2500 nM

// lookup IC50 for CC(C)(O)COc1ccc2c(C(=O)NC3CC4(C3)CC(Oc3c(F)cc(F)cc3C(N)=O)C4)cnn2c1C1CC1 (stereo not shown)
50 to 250 nM

// lookup IC50 for COc1ccn2c(C(=O)N[C@H]3CC4(C3)C[C@H](Oc3ncccc3C(N)=O)C4)cnc2c1 (stereo partly shown)
50 to 250 nM

Next up:
// lookup IC50 for NC(=O)c1cccnc1O[C@H]1CC2(C[C@H](NC(=O)c3cnn4cc(OCCOC(F)(F)F)ccc34)C2)C1 (stereo partly shown)
5 to 50 nM

###

biological target: ROCK2 (Homo sapiens); assay: ROCK2 kinase inhibition assay (LABCHIP 3000 Reader, FITC peptide substrate)
Below, each entry is listed with its recorded IC50.

// lookup IC50 for Cn1cc(-c2ccn3c(C(=O)N[C@H]4CC5(C4)C[C@H](Oc4ncccc4C(N)=O)C5)cnc3c2)cn1 (stereo partly shown) [Example 337]
0.005 to 0.05 µM

// lookup IC50 for NC(=O)c1cccnc1O[C@H]1CC2(C[C@H](NC(=O)c3cnn4cc(N5CC6(COC6)C5)ccc34)C2)C1 (stereo partly shown) [Example 349]
0.005 to 0.05 µM

// lookup IC50 for CC(C)(O)COc1ccc2c(C(=O)NC3CC4(C3)CC(Oc3cc(-c5ccc(S(C)(=O)=O)cc5)ccc3C(N)=O)C4)cnn2c1 (stereo not shown) [Example 286]
0.005 to 0.05 µM

// lookup IC50 for CC(C)(O)COc1ccc2c(C(=O)NC3CC4(C3)CC(Oc3cc(-c5cccc(N)n5)ccc3C(N)=O)C4)cnn2c1 (stereo not shown) [Example 236]
0.005 to 0.05 µM

Next:
// lookup IC50 for NC(=O)c1cccnc1OC1CC2(CC(NC(=O)c3c[nH]c(-c4ccccc4)n3)C2)C1 (stereo not shown) [Example 390]
0.25 to 2.5 µM

// lookup IC50 for NC(=O)c1cccnc1O[C@H]1CC2(C[C@H](NC(=O)c3cnn4cc(OCCCC(F)(F)F)ccc34)C2)C1 (stereo partly shown) [Example 122]
0.005 to 0.05 µM

// lookup IC50 for NC(=O)c1ccccc1O[C@H]1CC2(C[C@H](NC(=O)c3cnn4ccccc34)C2)C1 (stereo partly shown) [Example 303]
0.05 to 0.25 µM

###

target: ROCK2 (Homo sapiens, UniProt O75116); experiment: ROCK2 kinase inhibition assay (LABCHIP 3000 Reader, FITC peptide substrate); conditions: read-out: ROCK2 Activity (ROCK2 IC50); 5 μM ATP, 1.5 μM peptide substrate, pH 7.5;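 note: rho kinase reaction read by separating phosphorylated from unphosphorylated peptide on chip, with inhibition of kinase activity computed per concentration across a dose-response series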
pIC50: −log10 of the molar value.
Below, each entry is listed with its recorded pIC50.

// lookup pIC50 for NC(=O)c1cccnc1OC1CC2(CC(NC(=O)c3nn(CCC(F)(F)F)c4cc(F)ccc34)C2)C1 (stereo not shown) [Example 105]
> 8.30

// lookup pIC50 for Cn1cc(-c2ccc3c(C(=O)NC4CC5(C4)CC(Oc4ncccc4C(N)=O)C5)nc(C(F)(F)F)n3c2)cn1 (stereo not shown) [Example 433]
> 8.30

// lookup pIC50 for Cn1ncc2c(C(=O)NC3CC4(C3)CC(Oc3ncccc3C(N)=O)C4)cc(Br)cc21 (stereo not shown) [Example 425]
7.30 to 8.30

// lookup pIC50 for Cc1c(-c2ccc3c(C(=O)NC4CC5(C4)CC(Oc4ncccc4C(N)=O)C5)nc(C)n3c2)cnn1C (stereo not shown) [Example 458]
7.30 to 8.30

// lookup pIC50 for NC(=O)c1cccnc1OC1CC2(CC(NC(=O)c3cc(N4CC5CC4CO5)cc(C(F)(F)F)c3)C2)C1 (stereo not shown) [Example 452]
7.30 to 8.30

// lookup pIC50 for NC(=O)c1cccnc1O[C@H]1CC2(C[C@H](NC(=O)c3nn(C(F)F)c4cc(F)ccc34)C2)C1 (stereo partly shown) [Example 103]
> 8.30

Next up:
// lookup pIC50 for NC(=O)c1cccnc1OC1CC2(CC(NC(=O)c3nc(C(F)F)n4cc(N5CCOC(CCO)C5)ccc34)C2)C1 (stereo not shown) [Example 451]
7.30 to 8.30
